EXPERIMENTAL_TARGET: Zif268 finger 2 variant RGPD finger 2 alpha-helix variant RGPD (full helix only in FIG. 1D) (Mus musculus) (UniProt P08046)
CONDITION_PARAMETERS: [none]; apparent Kd interpolated from microarray signal 0.151
MEASUREMENT_TYPE: Kd

Lab book: Kd of TATATAGCGGAGGCGTATATATCAAGTCAATCGGTCC (double strand) [Zif268 site GAG] noted as 670 nM

* * *

EXPERIMENTAL_TARGET: Zif268 finger 2 variant REDV finger 2 alpha-helix variant REDV (full helix only in FIG. 1D) (Mus musculus) (UniProt P08046)
METHOD_NOTES: ELONA
CONDITION_PARAMETERS: [none]; apparent Kd, phage ELISA, PBS/Zn, RT
Measured Kd by item
Just the number in nM, nothing appended.

BIOPOLYMER_SEQUENCE	Kd [nM]
TATATAGCGCCGGCGTATATATCAAGTCAATCGGTCC (double strand) [Zif268 site CCG]	880

Lab book: Kd of TATATAGCGGCGGCGTATATATCAAGTCAATCGGTCC (double strand) [Zif268 site GCG] noted as 11

Lab book: Kd of TATATAGCGGTGGCGTATATATCAAGTCAATCGGTCC (double strand) [Zif268 site GTG] noted as 11

* * *

EXPERIMENTAL_TARGET: Zif268 finger 2 variant KASN finger 2 alpha-helix variant KASN (full helix only in FIG. 1D) (Mus musculus)
CONDITION_PARAMETERS: [none]; apparent Kd interpolated from microarray signal 0.974
MEASUREMENT_TYPE: pKd
Just the number, please; pKd means minus log10 of the concentration in mol/L.

Lab book: pKd of TATATAGCGCCTGCGTATATATCAAGTCAATCGGTCC (double strand) [Zif268 site CCT] noted as 6.60

* * *

EXPERIMENTAL_TARGET: Zif268 finger 2 variant KASN finger 2 alpha-helix variant KASN (full helix only in FIG. 1D) (Mus musculus) (UniProt P08046)
METHOD_NOTES: ELONA
CONDITION_PARAMETERS: [none]; apparent Kd, phage ELISA, PBS/Zn, RT
MEASUREMENT_TYPE: Kd (nM)
Just the number in nM, nothing appended.

Answered examples (3):
BIOPOLYMER_SEQUENCE	Kd (nM)
TATATAGCGCGGGCGTATATATCAAGTCAATCGGTCC (double strand) [Zif268 site CGG]	1460
TATATAGCGAATGCGTATATATCAAGTCAATCGGTCC (double strand) [Zif268 site AAT]	250
TATATAGCGTAGGCGTATATATCAAGTCAATCGGTCC (double strand) [Zif268 site TAG]	390

Lab book: Kd of TATATAGCGTATGCGTATATATCAAGTCAATCGGTCC (double strand) [Zif268 site TAT] noted as 270

* * *

EXPERIMENTAL_TARGET: Zif268 finger 2 variant KASN finger 2 alpha-helix variant KASN (full helix only in FIG. 1D) (Mus musculus) (UniProt P08046)
CONDITION_PARAMETERS: [none]; apparent Kd interpolated from microarray signal 0.862
MEASUREMENT_TYPE: pKd
Just the number, please; pKd means minus log10 of the concentration in mol/L.

Lab book: pKd of TATATAGCGAGTGCGTATATATCAAGTCAATCGGTCC (double strand) [Zif268 site AGT] noted as 6.49
